# Test system: HL-1
# Protocol details: relative cell viability (CellTiter-Glo) vs DMSO control (% of DMSO control); higher = more viable cells
# Condition: oxygen condition: hypoxia 48 h (1% O2) + reoxygenation 24 h; 40 nM
Structures can show the parent of a compound that is named as a salt.
The following molecules are shown together with reported relative cell viability values.
Would you mind answering with just the numeric figure?

molecule="COc1ccc2[nH]c([S+]([O-])Cc3ncc(C)c(OC)c3C)nc2c1 (stereo not given) [Omeprazole]" measured_quantity="relative cell viability" measured=101
molecule="Cn1c([N+](=O)[O-])cnc1COC(N)=O [Ronidazole]" measured_quantity="relative cell viability" measured=107
molecule="COc1cc(C(=O)NC2CCCNC2)cc(OC)c1OC (stereo not given) [Troxipide]" measured_quantity="relative cell viability" measured=103
molecule="N[C@@H](Cc1ccc(O)c(O)c1)C(=O)O [Levodopa]" measured_quantity="relative cell viability" measured=110
molecule=C[C@@H](NCCCc1cccc(C(F)(F)F)c1)c1cccc2ccccc12 measured_quantity="relative cell viability" measured=102
molecule="CNCCC(Oc1ccc(C(F)(F)F)cc1)c1ccccc1 (stereo not given) [Fluoxetine HCl]" measured_quantity="relative cell viability" measured=103
molecule="CC(=O)[C@H]1CC[C@H]2[C@@H]3CCC4=CC(=O)CC[C@]4(C)[C@H]3CC[C@]12C [Progesterone]" measured_quantity="relative cell viability" measured=109
molecule="CN1CCN(CCCN2c3ccccc3Sc3ccc(Cl)cc32)CC1 [Prochlorperazine Dimaleate]" measured_quantity="relative cell viability" measured=114
molecule="CC(COc1ccccc1)N(CCCl)Cc1ccccc1 (stereo not given) [Phenoxybenzamine HCl]" measured_quantity="relative cell viability" measured=101

// next entry
Query string: For O=C(O)c1cn(C2CC2)c2cc(N3CCNCC3)c(F)cc2c1=O [Ciprofloxacin] , what is its reported relative cell viability?
Result string: 107

Recorded values, source the supplement of paper PMC8371130.
